target_entity: the molecule itself
procedure_details: cryo-EM structure; single-particle cryo-EM of the complex purified in LMNG (Strep-Tactin XT, then SEC); samples at A280 of 1 on Quantifoil Au R1.2/1.3 grids, blotted at 4°C; SthGldLM′ also with fluorinated octyl maltoside in buffer W (100 mM Tris-HCl pH 8.0, 150 mM NaCl, 1 mM EDTA) plus 0.01% LMNG
# stoichiometry N per record follows
Number, no unit, nothing else.

[ask] Please look up its stoichiometry N: Porphyromonas gingivalis PorL (natural protein) MGHYRRYKNILEMYLASHKGRRLLNIVYSWGAAVVILGALFKLLHLPMGNEMLFVGMITEFLVFFISGFEKPAMEYHWEEVFPELDSKNPMDRREMEQRREYLREKAKEAAAYAERPSSVRLASASLGTQPQEQPKPATPFQSQLTGILPEEQIQRLSEGIDKLAEAGEQLARIGRTAAAMTESYEQMQADQEGLRLNSQSYIQQMESLSRNISGLNTIYEIQLKGISSQIDTIDRINRGLAHIRDMYDNSVIDSSSFRNENERMARQLTQLNEVYARLLQALTTNVGLPGMPGNFGASNPSSSGSSPL
[reply] 5

[ask] Given Sphingobacterium wenxiniae GldM′ (GldM truncated after the first periplasmic D1 domain, twin-Strep-tagged) (domain or fragment) MAGKKETPRQRMIGILYLVLLGLVALNVSDSILDAFKNLGNSLNTSTQNTQAGIDNMFLAFRETKLKENPERAQPILQKAEQAQALVQQLTSKVGELTTLLEGEGGGLDEETGDVKYRSSTDISARLMINEGRAKELREVITKTKAELLTLTNNEINLTLEAEDPAPRGGIKKTWEQANFGDGIPLTAAITALEKINADAKNAESAVVKHIFGKMDQAVVNLDQENLYFQGQFGSWSHPQFEKGGGSGGGSGGGSWSHPQFEK , state its recorded stoichiometry N.
[reply] 2

Please find the next protein below.
[ask] Recorded stoichiometry N for Schleiferia thermophila GldM′ (GldM truncated after the first periplasmic D1 domain, twin-Strep-tagged) (domain or fragment) MAQGKLSPRQRMINMMYLVLTALLALNISKDILEALTKLNEDLSSTVMTVEKKLAFIYQAFDLAASENPEKAGVWRDKAYEVKKQADELHNYLEGIKNDLIEITGGIDEKTNRPKGLDNREKVANYLLVNEGGKAREIRARLEQFRDNMKQYVDEEAALINMLEALFNTEKKKVGDVMIEWENATFEHFPLAAVIPFITGIQANVRNAEADIISHLQRNIGKTDLKFTDENLYFQGQFGSWSHPQFEKGGGSGGGSGGGSWSHPQFEK , please?
[reply] 2
